target: T1, human LILRB2 expressed on cells (293T-LILRB2, CHO-K1-LILRB2) (human, UniProt Q8N423 22-597); experiment: flow cytometry, 293T-LILRB2 cells
T1 construct: whole, on cells; the cell line is named under assay; also called HEK293T-LILRB2
T1 sequence (Q8N423 22-597): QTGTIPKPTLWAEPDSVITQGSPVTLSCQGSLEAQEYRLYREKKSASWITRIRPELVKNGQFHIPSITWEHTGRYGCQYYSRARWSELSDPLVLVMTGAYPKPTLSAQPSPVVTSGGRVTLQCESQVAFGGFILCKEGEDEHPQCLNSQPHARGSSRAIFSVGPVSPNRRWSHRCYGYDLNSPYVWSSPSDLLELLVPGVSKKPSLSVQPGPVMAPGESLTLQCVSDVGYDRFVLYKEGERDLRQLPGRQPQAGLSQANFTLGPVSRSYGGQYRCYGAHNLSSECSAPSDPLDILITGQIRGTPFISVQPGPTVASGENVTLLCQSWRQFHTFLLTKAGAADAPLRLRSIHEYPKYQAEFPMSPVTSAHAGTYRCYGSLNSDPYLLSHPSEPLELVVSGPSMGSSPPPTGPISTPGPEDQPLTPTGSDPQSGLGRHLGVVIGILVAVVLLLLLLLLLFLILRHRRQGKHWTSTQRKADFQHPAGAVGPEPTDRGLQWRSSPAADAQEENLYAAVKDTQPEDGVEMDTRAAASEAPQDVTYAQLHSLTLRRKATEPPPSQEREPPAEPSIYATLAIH
Threshold-based label: Bmax under 700000 gives Criterion met, Bmax not under 700000 gives Criterion not met.

- Binder: "Antibody 2E1_GB8 (antibody, V domains shown) VH: EVQLVESGGGLVQPGGSLRLSCAVSGYSITSGYYWWWIRQAPGKGLEWVAYISYDGNNNYNPSLKNRFTISRDTSKNTFYLQMNSLRAEDTAVYYCAREESTMITTAWFAYWGQGTLVTVSS VL: DIQMTQSPSSLSASVGDRVTITCSASENIYSNLAWYQQKPGKAPKLLIYGATNLASGVPSRFSGSGSGTDYTLTISSLQPEDFATYYCQHFWDTPYTFGQGTKVEIK"
  Class label: "Criterion met"
- Binder: "Antibody 2E1_GD9 (antibody, V domains shown) VH: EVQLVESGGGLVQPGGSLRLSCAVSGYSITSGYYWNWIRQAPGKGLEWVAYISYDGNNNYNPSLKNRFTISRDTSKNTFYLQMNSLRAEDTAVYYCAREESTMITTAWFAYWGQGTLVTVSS VL: DIQMTQSPSSLSASVGDRVTITCRASENIFSNLAWYQQKPGKAPKLLIYGATNLASGVPSRFSGSGSGTDYTLTISSLQPEDFATYYCQHFWDTPYTFGQGTKVEIK"
  Class label: "Criterion not met"
